# System: UACC-62 melanoma
# assay_procedure: NCI tumour cell line growth inhibition, 48 h
parameter: TGI

Entry Cc1ccc2c(/C=C/c3ccc(N(C)C)cc3)ccc(C(C)C)cc1-2 : reported TGI = ?
> 100 µM

---

# Tested on: HCC-2998 colon
# assay_procedure: NCI tumour cell line growth inhibition, 48 h; in the data active means GI50 below about 0.43 µM; inactive means the rest
Output constraint: value belongs to 1 (active), 0 (inactive)

# count of solved cases: 5
compound	category_label
C[C@]12CC[C@@H]3c4ccc(O)cc4CC[C@H]3[C@@H]1Cc1cnc(N)nc12	0
COc1cc(/C=C/C(=O)c2ccc(F)cc2)ccc1OCCCN1CCN(CC(=O)Nc2ccc(Cl)cc2C(=O)c2ccccc2Cl)CC1	0
[O-]c1ccccc1/C=N/C(/N=C/c1ccccc1[O-])c1ccccc1O.[O-]c1ccccc1/C=N/C(/N=C/c1ccccc1[O-])c1ccccc1O.[Zr+4]	0
Cc1cnc(CNC(=O)c2c(=O)c3ccc(N4CCCN(C)CC4)nc3n3c2sc2ccccc23)cn1	0
Cc1ccc(C(=O)NC2CCC2)cc1-c1ccc(C(=O)NCC2CC2)cc1	0

Entry CC[C@H](CO)Nc1nc(NCc2ccccc2)c2ncn(C(C)C)c2n1 : call = ?
0

Next compound up: O=C(Nc1ccc(Oc2cccc(F)c2)c(Cl)c1)c1cnccn1
0

Next record, please: Nc1ccccc1C#C/C=C\C#Cc1cccc(O)c1
0

---

# Tested on: A498 renal
# assay_procedure: NCI tumour cell line growth inhibition, 48 h
parameter: GI50

> print(dat)
                                   molecule   result
1  COc1ccc(C2=C(c3ccc(OC)c(OC)c3)C(=O)N3CCCC3C2)cc1 (stereo not given)  34.1 µM

Form field: reported GI50 of COc1cc(OC)c2[nH]c3c(O)c(-c4c(C)cc5c([nH]c6c(OC)cc(OC)cc65)c4O)c(C)cc3c2c1
7.82 µM

Next molecule up: COC(=N)c1c(N)[n+]([O-])c2ccc(F)cc2[n+]1[O-]
40.4 µM

c1ccc2[nH]c(-c3cc(-c4ccc5c(c4)OCO5)n[nH]3)nc2c1 , same question.
1.7 µM

Do the same for COc1cnc2c(c1)C(=O)c1c-2n(CCCNC2=NCCS2)c(=O)c2cc(Cl)ccc12 please
1.29 µM

---

# Tested on: SK-OV-3 ovarian
# assay_procedure: NCI tumour cell line growth inhibition, 48 h
parameter: TGI (µM)
A number alone suffices; assume µM.

Return reported TGI; argument: Cc1[nH]c(=O)nc(Nc2ccc(Cl)cc2)c1C(=O)N1CCN(CCO)CC1
83.1

Same lookup for CNC(=O)OCc1c2ccncc2c(C)c2c1[nH]c1ccc(OC)cc12 , please.
0.866

Next up: C=C1C[C@H](O)[C@H](Br)C(C)(C)C12CCC(C)(Cl)C(Br)C2 (stereo not given in full)
12.7

---

# Tested on: UACC-257 melanoma
# assay_procedure: NCI tumour cell line growth inhibition, 48 h; in the data active = GI50 below about 0.43 µM; inactive = the rest
Write down the outcome that applies. Available outcomes: active, inactive

> print(dat)
                                   molecule  category.label
1  COC(=N)c1c(N)[n+]([O-])c2ccc(F)cc2[n+]1[O-]        inactive
2  COc1ccc(C2=C(c3ccc(OC)c(OC)c3)C(=O)N3CCCC3C2)cc1 (stereo not given)        inactive

Name the outcome recorded for COc1cccc(-c2cc3c4c(nc5ccccc53)C(=O)c3cccnc3-c4n2)c1 in the assay.
inactive

Try the molecule COc1cnc2c(c1)C(=O)c1c-2n(CCCNC2=NCCS2)c(=O)c2cc(Cl)ccc12
inactive

Could you do the same for Cc1ccc(-c2nc3nc(-c4ccccc4)nc(N4CCNCC4)c3o2)cc1 , please?
inactive

Repeat with CCOC(=O)c1cc2c(n1Cc1cc(OC)c(OC)c(OC)c1)-c1oncc1CCC2
active

Input COc1cc(OC)c(C(=O)/C=C/c2cccc(C#N)c2)c(OC)c1
inactive

One more molecule: Cc1nn(-c2ccc(Cl)cc2)c2nc3c(nc12)C(=O)C(=O)c1ccccc1-3
inactive

Repeat for the following molecule: CN(C)c1ccc(C(=NO)c2ccc(N(C)C)cc2)cc1
inactive

Now consider CC1=C(CCC(C)NCc2ccc(OCCCN3CCCCC3)cc2)C(C)(C)CCC1 (stereo not given) and answer again.
inactive
